- Tested on: NCI-H522
- Test method notes: NCI tumour cell line growth inhibition, 48 h
Active and inactive are the calls of the source. Rule as the data show it: active = GI50 up to about 1.1 µM and inactive = higher.
Outcome codes: 1 (active), 0 (inactive)

>>> print(df.to_string())
                                    compound  class_name
 0  CCCCCCCC(=O)N1C2CC3CCC2(CS1(=O)=O)C3(C)C (stereo unspecified)           0
 1     C=C=C[P+](c1ccccc1)(c1ccccc1)c1ccccc1           0
 2  COc1ccc(/C=N/Nc2nnc3c(n2)c2ccccc2c2nn(-c4ccccc4Cl)nc23)cc1           0
 3  CC1(O)OC(=O)C2=C1CCC1C2CCC2(C)C(O)CCC12 (stereo unspecified)           0
 4  COc1cc2c(c(OC)c1)C(C)=NC(C)C2 (stereo unspecified)           0
 5  Fc1ccccc1C1CC(C(c2ccccc2)c2ccccc2)=Nc2ccccc2S1 (stereo unspecified)           0
 6  CN(C)CC1CCCC(CN2CCCCC2)C1=O (stereo unspecified)           1
 7                      NCCSSCc1ccccc1CSSCCN           0
 8  Nc1ccccc1/N=C/c1cc2cc([N+](=O)[O-])ccc2s1           0
 9        c1ccc(CCCC2Sc3cccc4cccc(c34)S2)cc1           0
10  O=C(NC(Cc1ccc(I)cc1)C(=O)O)c1ccc(I)cc1 (stereo unspecified)           0
11      Brc1ccc(C[N+]23CN4CN(CN(C4)C2)C3)cc1           0
12  CSCCCNC(=O)c1csc([C@@H](CSC)NC(=O)CCNC(=O)[C@@H](NC(=O)OCC(Br)(Br)Br)C(C)O)n1 (stereo partly specified)           0
13            O=C(NCCNCCO)N/N=C/c1ccc(Cl)cc1           0
14    CCOP(=O)(/C=C\n1cc(C)c(=O)[nH]c1=O)OCC           0
15  COc1ccc2c(CN3CCCCC3CO)cc3cc(OC)c(OC)cc3c2c1 (stereo unspecified)           0
16  Cc1ccc([N+](=O)[O-])cc1S(=O)(=O)Nc1ccc(C2=NN(S(=O)(=O)c3cc([N+](=O)[O-])ccc3C)C(c3cccs3)C2)cc1 (stereo unspecified)           0
17  C=C1CC[C@@H]2[C@](C)(COC(=O)CCC(=O)OC)CCC[C@@]2(C)[C@@H]1CCC1=CC(=O)OC1           0
18  CC(C)N(C(=O)C12C3C4C1C1C2C3C41C(O)C(C)(C)C)C(C)C (stereo unspecified)           0
19  C#C[C@]1(O)CC[C@H]2[C@@H]3CCC4=C/C(=N/NC(=O)c5cccc6c(=O)c7ccccc7[nH]c56)CCC4[C@H]3CC[C@@]21C (stereo partly specified)           0
20  CO/N=C(\C(=O)[N-]n1cn[n+](CC(=O)OC(C)(C)C)c1)c1csc(NC(c2ccccc2)(c2ccccc2)c2ccccc2)n1           0
